Source of measurements: ChEMBL document CHEMBL2396539

# ASSAY TARGET: Bile acid receptor (Homo sapiens, UniProt Q96RI1)
# Sequence (Q96RI1 whole entry, the tested form may be a part): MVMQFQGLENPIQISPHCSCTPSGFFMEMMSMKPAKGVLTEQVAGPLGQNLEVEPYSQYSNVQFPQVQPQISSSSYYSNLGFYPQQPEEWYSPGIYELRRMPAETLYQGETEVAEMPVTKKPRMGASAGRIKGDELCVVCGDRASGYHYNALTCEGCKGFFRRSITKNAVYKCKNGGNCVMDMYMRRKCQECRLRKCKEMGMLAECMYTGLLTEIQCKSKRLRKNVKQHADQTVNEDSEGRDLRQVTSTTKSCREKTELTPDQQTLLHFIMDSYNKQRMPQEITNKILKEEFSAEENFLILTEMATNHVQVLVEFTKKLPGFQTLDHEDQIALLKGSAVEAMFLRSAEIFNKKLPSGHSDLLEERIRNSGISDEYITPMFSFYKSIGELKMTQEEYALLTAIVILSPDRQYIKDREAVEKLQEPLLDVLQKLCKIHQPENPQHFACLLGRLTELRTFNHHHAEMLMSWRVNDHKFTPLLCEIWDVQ
# METHOD NOTES: Agonist activity at GST-tagged human FXR LBD assessed as recruitment of biotinylated SRC-1 peptide after 30 mins by AlphaScreen assay
So I've got a bunch of compounds here, and I need their pEC50 values.
Answers are plain numbers, as −log10 of the molar value.

Some compounds with known pEC50 results, for comparison:
COMPOUND	VALUE MEASURED
CCc1nn(-c2ccccc2C)c2c1[C@@H](c1ccc(Oc3ccccc3)cc1)S[C@@H](C)C(=O)N2 (racemic)	5.70
Cc1ccccc1-n1nc(C)c2c1NC(=O)CS[C@H]2c1ccc(Oc2ccccc2)cc1 (racemic)	4.85
Cc1ccccc1-n1nc(C)c2c1NC(=O)[C@H](C)S[C@@H]2c1ccc(Oc2ccccc2)cc1	5.85
CCC1SC(c2ccc(Oc3ccccc3)cc2)c2c(C)nn(-c3ccccc3C)c2NC1=O (mixture of isomers)	5.52

Now for a further compound.
Measured pEC50 for this entry Cc1ccccc1-n1nc(C)c2c1NC(=O)[C@H](C)S[C@@H]2c1ccc(Oc2ccccc2)cc1 (racemic) on Bile acid receptor (Homo sapiens, UniProt Q96RI1): 5.52

----------
# ASSAY TARGET: Bile acid receptor (Homo sapiens)
# METHOD NOTES: Agonist activity at GST-tagged human FXR LBD assessed as recruitment of biotinylated SRC-1 peptide after 30 mins by AlphaScreen assay relative to CDCA
EXPERIMENTAL READOUT: Efficacy (%)
Numbers only, in %.

COMPOUND	Efficacy [%]
Cc1ccccc1-n1nc(C)c2c1NC(=O)CS[C@H]2c1ccc(Oc2ccccc2)cc1 (racemic)	8
CCC1SC(c2ccc(Oc3ccccc3)cc2)c2c(C)nn(-c3ccccc3C)c2NC1=O (mixture of isomers)	35

For every item in the list below, what is its measured Efficacy?
1. Cc1ccccc1-n1nc(C)c2c1NC(=O)[C@H](C)S[C@@H]2c1ccc(Oc2ccccc2)cc1
2. Cc1ccccc1-n1nc(C)c2c1NC(=O)[C@H](C)S[C@@H]2c1ccc(Oc2ccccc2)cc1 (racemic)
3. CCc1nn(-c2ccccc2C)c2c1[C@@H](c1ccc(Oc3ccccc3)cc1)S[C@@H](C)C(=O)N2 (racemic)

[130, 150, 140]
